# System: MALME-3M melanoma
# method: NCI-60 one-dose screen, 48 h (100 = growth as untreated, 0 = no growth, -100 = all killed)
# protocol conditions: 10 µM unless noted
Compounds without any hit were thinned out: in the full panel of roughly 83,000, 20% have a hit. Activity calls are given as the source filed them. The calls were made as follows: active = growth percent below 10; inactive = the rest.
measured quantity: growth

// sample Nc1nc(Cl)cc(=O)n1Cc1ccccc1 , its growth was 93.2% (inactive)

// sample Cc1ccc2nc(NC(=O)CSc3nc(Cl)c(C#N)c(-c4ccccc4)n3)sc2c1 , its growth was 104% (inactive)

// sample C[C@]12CC[C@@H]3c4cc(OC(F)F)c(OS(N)(=O)=O)cc4CC[C@H]3[C@@H]1CC[C@@H]2OS(N)(=O)=O , its growth was 41% (inactive)

// sample CCOC(=O)c1cn2ncnc(Oc3ccc(NC(=O)NCCN4CCOCC4)c(Cl)c3)c2c1C , its growth was 91.5% (inactive)

// sample O=C1NC(=O)C(c2ccccc2)(c2ccccc2)N1Cc1cn(-c2c3ccccc3nc3ccccc23)nn1 , its growth was 104% (inactive)

// sample COc1ccc(CN2c3ccccc3Sc3ccccc32)c(F)c1 , its growth was 57% (inactive)

// sample NCCCNc1nc2ccccc2c2c(=O)c3cccc(F)c3sc12 , its growth was 80% (inactive)

// sample CCN1C(=O)N(CC)C2Nn3c(s/c(=C4\C(=O)N(CCC(C)C)c5ccccc54)c3=O)=NC21 (centres undefined) , its growth was 79.8% (inactive)

// sample C[C@H]1[C@H]2[C@H]3CC[C@@H]4[C@@]5(C)CC[C@H](O)C(C)(C)[C@@H]5CC[C@@]4(C)[C@]3(C)CC[C@]23CO[C@]1(C)[C@@H](C(=O)/C=C\c1cccnc1)C3 , its growth was 54.4% (inactive)

// sample Cc1cc(-c2cc(C)c(N)cc2C)c(C)cc1N , its growth was 84.2% (inactive)

// sample COc1ccc(-c2csc(NC(=O)N3CCN(c4cc5c(cc4F)c(=O)c(C(=O)O)cn5C4CC4)CC3)n2)cc1 , its growth was -11.4% (active)

// sample COc1ccc(C2=Nn3c(nnc3-c3cc(Cl)cc(Cl)c3Cl)SC2)cc1 , its growth was 37.2% (inactive)

// sample CNC(=O)c1cc(-n2ccc3cc(NC(=O)c4ccc(N5CCOCC5)c(C(F)(F)F)c4)ccc32)ccn1 , its growth was 73.9% (inactive)

// sample COc1ccccc1/C=C1\Oc2cc(OCCN3CCC(Cc4ccccc4)CC3)ccc2C1=O , its growth was 76.8% (inactive)

// sample O=C(Nc1ccc(Cl)cc1F)c1ccccc1O , its growth was -6.47% (active)

// sample O=C(N/N=C/[C@@H](O)[C@H](O)[C@H](O)CO)c1ccc(NC(=O)c2cccnc2)cc1 , its growth was 110% (inactive)

// sample Cc1ccccc1C(=O)NN , its growth was 106% (inactive)

// sample CCc1ccc(Oc2c(-c3ccc(OCCc4cccc(C(F)(F)F)c4)cc3O)n[nH]c2C(F)(F)F)cc1 , its growth was 48.8% (inactive)

// sample NCCOc1ncccc1/C=C1\c2ccccc2-c2ccc(C(F)F)cc21 , its growth was 61.6% (inactive)

// sample CCCCC[C@H](O)C/C=C1/C(=O)C=C[C@@H]1C/C=C\CCCC(=O)O , its growth was 116% (inactive)

// sample CC(C)(C)NC(=O)C(OC(=O)c1cccc(Cl)c1)c1ccc(Cl)cc1 (centres undefined) , its growth was 103% (inactive)

// sample Oc1c(I)cc(I)cc1CNCCCN(Cc1ccccn1)Cc1ccccn1 , its growth was -73.2% (active)

// sample Cc1ccc(-c2nc(N3CCN(CC(=O)Nc4ccc(Cl)c(C(F)(F)F)c4)CC3)c3ccccc3n2)cc1 , its growth was 106% (inactive)

// sample Cn1cc(C(=O)c2nc(-c3cn(C)c4ccc(F)cc34)no2)c2cc(F)ccc21 , its growth was 96.4% (inactive)

// sample Cc1nc2nc(SCC(=O)O)[nH]c2c(=O)[nH]1 , its growth was 112% (inactive)

// sample O=C(N=c1oc2ccccc2cc1-c1cc2ccccc2[nH]1)Nc1ccc(Cl)cc1 , its growth was 99.2% (inactive)

// sample CC(=O)Oc1ccccc1C(=O)N=C1[Se]CCCN1C(=O)c1ccccc1OC(C)=O , its growth was -27.1% (active)

// sample CCN(CC)CCNC(=O)c1cn2ncnc(Oc3ccc(NC(=O)Nc4ccc(Cl)c(C(F)(F)F)c4)cc3)c2c1C , its growth was -81.1% (active)

// sample COc1cccc(-c2nc(-c3ccc(NC(=O)C(C)C)cc3)[nH]c2-c2ccnc(Br)c2)c1 , its growth was 34.4% (inactive)

* * *

# Tested on: RXF 393 renal
# method: NCI-60 one-dose screen, 48 h (100 = growth as untreated, 0 = no growth, -100 = all killed)
# protocol conditions: 10 µM unless noted
The panel holds about 83,000 compounds, 20% with a hit somewhere; the sample as a whole holds those more often.
measured quantity: growth (%)
Write down the numeric answer in % and omit the unit.

// sample CCOC(=O)c1cnn2c3ccccc3n(S(=O)(=O)c3ccc(OC)cc3)c12 , its growth was -6.6

// sample O=C(Oc1cccc2ccccc12)Oc1cccc2ccccc12 , its growth was 115

// sample NS(=O)(=O)c1ccc(-n2nc(C(=O)N/N=C\c3ccc(F)cc3)cc2-c2ccc(Br)cc2)cc1 , its growth was 77.8

// sample COc1ccc(/C=N/Nc2cc(=O)[nH]c3ccc(Cl)cc23)cc1 , its growth was 85.6

// sample COc1ccc(/C=C/c2c(C(=O)/C=C/c3ccc(C(F)(F)F)cc3)c(C)nc3ccccc23)cc1 , its growth was -83.9

// sample O=C(CCCCCCSc1nc(-c2ccccc2)cc(-c2ccccc2)n1)NO , its growth was 6.08

// sample COc1ccc(-c2nc3sc(-c4ccccc4)cn3n2)cc1 , its growth was 75.3

// sample NCCCNc1nc2ccccc2c2c(=O)c3cc(F)cc(Cl)c3sc12 , its growth was 73.6

// sample COC(=O)c1ccc2[nH]c(O)c(C(=Nc3ccc(N(C)C(=O)CN4CCN(C)CC4)cc3)c3ccccc3)c2c1 , its growth was -39.3

// sample OC(COc1ccccc1Cl)CN1CCN(c2cccc(Cl)c2)CC1 (stereo not drawn) , its growth was 118

// sample COc1ccc(C(=O)COC(=O)[C@H](C[Se][Se]C[C@H](NC(=O)c2ccc(Br)cc2F)C(=O)OCC(=O)c2ccc(OC)cc2)NC(=O)c2ccc(Br)cc2F)cc1 , its growth was -90.5

// sample Fc1cc(-c2nnc3n2NC(=Nc2ccc(Cl)cc2)CS3)c(Cl)cc1Cl , its growth was 89.8

// sample O=c1c2cccc(F)c2sc2c(NCCCNCCO)nc3ccccc3c12 , its growth was 50.8

// sample CC(=O)Oc1ccccc1C(=O)N=C1[Se]CCCN1C(=O)c1ccccc1OC(C)=O , its growth was 6.8

// sample CCCCC[C@H](O)C/C=C1/C(=O)C=C[C@@H]1C/C=C\CCCC(=O)OC , its growth was 70.8

// sample C=C1C(=O)O[C@H]2[C@H]1CC/C(COC(=O)CCSSCCC(=O)OC/C1=C/CC[C@@]3(C)O[C@H]3[C@H]3OC(=O)C(=C)[C@@H]3CC1)=C\CC[C@@]1(C)O[C@@H]21 , its growth was -93.6

// sample Cc1ccc(/C=C2\Oc3ccc(O)c(O)c3C2=O)cc1 , its growth was 27.4

// sample O=C(N=c1oc2ccccc2cc1-c1cc2ccccc2[nH]1)Nc1ccc(Cl)cc1 , its growth was 116

// sample COc1c(N2CC3CCCN(C(C)=O)C3C2)c(F)cc2c(=O)c(C(=O)N[C@H]3C(O)[C@@H](O)C(CO)O[C@H]3O)cn(C3CC3)c12 (stereo partly drawn) , its growth was 128

// sample CCCCCCn1c(-c2ccc(C(=O)O/N=C(\N)c3ccc4c(c3)OCO4)cc2)nc(-c2ccccc2)c1-c1ccccc1 , its growth was -27.2

// sample COc1ccc(C2NC(=O)C(C#N)c3c2sc2c(F)cccc32)c(OC)c1 (stereo not drawn) , its growth was 9.65

// sample CCCCN(C)N=Nc1ccc(C(N)=O)cc1 , its growth was 150

// sample Nc1ccccc1-c1cc2c(c3c1[nH]c1ccccc13)CCCCC2 , its growth was 113

// sample CN1CCN(c2ccc(-c3cnc4c(-c5csc6ccccc56)cnn4c3)cc2)CC1 , its growth was -66.4

// sample COc1ccc(-c2nc(NCCO)[nH]c(=O)c2C#N)cc1 , its growth was 117

// sample NC1CCN(c2nc(Nc3cccc(C(F)(F)F)c3)c3c(=O)[nH]ccc3n2)CC1 , its growth was -93.6

// sample N#Cc1c(-c2ccc(Cl)cc2)nc2c(c(-c3ccccc3)nn2-c2ccccc2)c1-c1ccc(O)cc1 , its growth was -27

// sample CCCCn1c(=O)c(-c2cc(-c3ccc(Cl)cc3)nc(-c3ccc(Cl)cc3)c2)cc2ccc(Cl)cc21 , its growth was 103

// sample CCOC(=O)C1=C(N)Oc2c(sc3c(C)cccc23)C1c1ccc(OC)cc1 (stereo not drawn) , its growth was 29.8

// sample Cc1nn(-c2ccccc2)c2c1N=c1s/c(=C\c3ccc(C(F)(F)F)cc3)c(=O)n1CN2 , its growth was 49.7

// sample CCCCC[C@H](O)C/C=C1/C(=O)C=C[C@@H]1C/C=C\CCCC(=O)O , its growth was 87.9

// sample C[C@]12CC[C@@H]3c4cc(OC(F)F)c(OS(N)(=O)=O)cc4CC[C@H]3[C@@H]1CC[C@@H]2OS(N)(=O)=O , its growth was 42.1

// sample OC(COc1ccccc1)CN1CCN(c2ccc(Cl)cc2)CC1 (stereo not drawn) , its growth was 113

Entry source: PubChem BioAssay (NCI)
